Source listed as ChEMBL document CHEMBL3351543.

- Assay procedure: Half life in PBS buffer at pH 7.4 at 4 degC by RP-HPLC method
- Type: ADME
Property label: half-life (h)
Numbers only here, please. The scale is h.

Name the reported half-life value associated with the compound Cl.NCCCOc1cc2ccccc2cc1C(=O)Nc1ccc(Cl)cc1OC(=O)c1cc2ccccc2cc1OCCCN
24

----------
- Assay procedure: Half life in PBS buffer at pH 6.01 by RP-HPLC method
- Assay type: ADME
Property label: half-life
Param answer (str): number followed by unit.

Name the reported half-life value associated with the molecule Cl.NCCCOc1cc2ccccc2cc1C(=O)Nc1ccc(Cl)cc1OC(=O)c1cc2ccccc2cc1OCCCN
7.46 h
